test system: HCC-2998 colon; test: NCI tumour cell line growth inhibition, 48 h
outcome.measure: TGI (µM)

| compound | outcome.measure | bound.operator | reported.result |
| --- | --- | --- | --- |
| CNC(=O)C(NC(=O)[C@H](CC(C)C)NC(=O)[C@@H](S)CCN1C(=O)N(C)C(C)(C)C1=O)C(C)(C)C (some centres undefined) | TGI | > | 100 |
| COC(=O)C(Cc1ccccc1)NC(=O)C(CCCN=C(N)N)NC(=O)OCc1ccccc1 (centres undefined) | TGI | > | 100 |
| CCc1ccccc1NC(=O)C1=C(C)NC(C)=C(C(=O)Nc2ccccc2CC)C1c1ccc(NC(C)=O)cc1 | TGI | = | 48.6 |
| CCOC(=O)CCc1c(C)c2c(O)cc(O)cc2oc1=O | TGI | > | 100 |
| Cc1ccc(-c2nc3n(c2/C=N\N=C(N)N)CCS3)cc1 | TGI | = | 24.2 |
| O=C1C(Cl)=C(Nc2ccc3c(c2NC2=C(Cl)C(=O)c4ccccc4C2=O)C(=O)c2ccccc2C3=O)C(=O)c2ccccc21 | TGI | = | 10.7 |
| COc1cc(C2c3cc4c(cc3[C@@H](Nc3ccc(N5CCOCC5)cc3)C3COC(=O)[C@H]23)OCO4)cc(OC)c1O (some centres undefined) | TGI | = | 4.1 |
| O=C1CSC(c2c(O)ccc3ccccc23)N1n1c(=S)[nH]nc(/C=C/c2c(O)ccc3ccccc23)c1=O (centres undefined) | TGI | = | 22 |
| COc1ccc2c(c1)-c1c(c3ccccc3n1CCN1CCOCC1)CC2 | TGI | = | 34.3 |

----------
test system: MALME-3M melanoma; experiment: NCI tumour cell line growth inhibition, 48 h

| compound.string | GI50 |
| --- | --- |
| Cc1sc2c(c1C)C(c1ccc(Cl)cc1)=N[C@@H](CC(=O)Nc1ccc(O)cc1)c1nnc(C)n1-2 | 12500 nM |
| CCCCc1oc2ccccc2c1C(=O)c1cc(I)c(OCCN(CC)CC)c(I)c1 | 1860 nM |
| O=C1/C(=C/c2ccc(C(F)(F)F)cc2)COc2ccc(O)cc21 | 2050 nM |

----------
Each record here notes measured TGI.
test system: HCT-116 colon; assay: NCI tumour cell line growth inhibition, 48 h

| compound | TGI |
| --- | --- |
| COc1cc(C2c3cc4c(cc3OC(N3CCOCC3)C2C)OCO4)cc(OC)c1OC (stereo not given) | 12.7 µM |
| CCc1ccccc1NC(=O)C1=C(C)NC(C)=C(C(=O)Nc2ccccc2CC)C1c1ccc(NC(C)=O)cc1 | > 100 µM |
| Cn1c2cc(Cl)ccc2c2ccc3c(c21)C(=O)C=CC3=O | > 53.7 µM |
| COc1cc2c(cc1-c1c(C)noc1C)ncc1[nH]c(=O)n([C@H](C)c3ccccn3)c12 | > 100 µM |
| CCCCCCCCC[C@@H]1C[C@@H]2CCC3C(C(=O)OCCCCNC(=O)OCc4ccccc4)=C(C)NC(=N1)N32 (stereo not given in full) | 10 µM |
| CNc1nc(=O)c(C#N)c(-c2ccc(C)cc2)s1 | > 100 µM |
| C=C(C)C1CCC2(CO)C(O)CC3(C)C(CCC4C5(C)CCC(O)C(C)(C)C5CCC43C)C12 (stereo not given) | 73.7 µM |
| Nc1nc(SCc2ccccc2[N+](=O)[O-])c2[nH]cnc2n1 | > 100 µM |
| C[N+](C)(N)Cc1csc(-c2ccc(Cl)cc2)n1 | > 100 µM |
| Cc1cccc2cc3ccc4ccccc4c3cc12 | > 100 µM |

----------
Each record here notes measured TGI.
tested on: DU-145 prostate; experiment: NCI tumour cell line growth inhibition, 48 h

| molecule | TGI |
| --- | --- |
| Cc1ccc(-c2nc3n(c2/C=N\N=C(N)N)CCS3)cc1 | 26.8 µM |
| CNC(=O)C(NC(=O)[C@H](CC(C)C)NC(=O)[C@@H](S)CCN1C(=O)N(C)C(C)(C)C1=O)C(C)(C)C (stereo not given in full) | > 100 µM |
| c1cc(-c2cnn3nc(N4CCOCC4)ccc23)nc(NC2CC2)n1 | > 25 µM |
| COc1ccc(NCc2c(O)ccc3ccccc23)cc1 | > 100 µM |
| COc1ccc(CCN2CCOCC2)cc1 | > 100 µM |
| Cc1ccc(N2C(=O)C(O)=C(C(=O)C(C)(C)C)C2c2ccc([N+](=O)[O-])cc2)cc1 (stereo not given) | > 100 µM |
| CC(=O)O[C@@H]1CC2[C@@H](CCC3Cc4nc5c(nc4C[C@@]32C)CC2CC[C@@H]3C(CC[C@@]4(C)C3CC[C@@H]4C(C)CCCC(C)C)[C@@]2(C)C5)C2C[C@@H]3OC4(CCC(C)CO4)C(C)[C@@H]3[C@]21C (stereo not given in full) | > 100 µM |
| CCCCCCCCCCCCCCCCCCNC(=S)/N=C/c1c(O)cc(C)oc1=O | > 100 µM |
| COc1ccc(-c2cc(-c3ccc(Nc4ccnc5cc(C(F)(F)F)ccc45)cc3)[nH]c(=O)c2C#N)cc1 | > 100 µM |
| C=C1C(=O)O[C@H]2[C@H]1CC/C(COC(=O)NCc1cccc(OC)c1)=C\CC[C@@]1(C)O[C@@H]21 | 3.04 µM |

----------
tested on: HCT-116 colon; assay: NCI tumour cell line growth inhibition, 48 h
Each record here notes measured TGI.

| molecule | value.unit | bound.operator | TGI |
| --- | --- | --- | --- |
| C=C(CN(CCN1CCOCC1)CC(=C)c1ccc(C(=O)Nc2ccccc2N)cc1)c1ccc(C(=O)Nc2ccccc2N)cc1 | µM | = | 15.3 |
| Cn1nc2ccc3nccc(NCCNCCCl)c3c2n1 | µM | > | 100 |
| CC(=O)OC1C/C(C)=C/[C@H](O)CC(C)/C=C/[C@@]2(C)CCC(C(C)(C)O)C12 (stereo not given in full) | µM | > | 100 |
| CC(C)=CCC[C@@H](C)C1=C(O)C(Nc2ccccc2F)=C(C)C(=O)C1=O | µM | = | 47.6 |
| C[n+]1c(-c2ccc(/C=N/Nc3n[nH]c(=S)n3N/N=C/c3ccc(-c4cn5ccccc5[n+]4C)cc3)cc2)cn2ccccc21 | µM | > | 100 |

----------
tested on: SK-OV-3 ovarian; test: NCI tumour cell line growth inhibition, 48 h
Each record here notes measured GI50.

| compound | GI50 |
| --- | --- |
| COc1cc(C(=O)/C=C/c2c(-c3cccs3)nc3ccccn23)cc(OC)c1OC | 3010 nM |
| CCCCc1oc2ccccc2c1C(=O)c1cc(I)c(OCCN(CC)CC)c(I)c1 | 2690 nM |
| c1ccc([P+](CCC[P+](c2ccccc2)(c2ccccc2)c2ccccc2)(c2ccccc2)c2ccccc2)cc1 | 69100 nM |
| Cc1ccc(C(=O)Nc2ccccc2C(=O)N/N=C(\c2ccccc2)c2ccccn2)cc1 | 478 nM |
| CCCCCCCCCCC(CN(CC)CC)C(O)c1ccccc1 (configuration not stated) | 2780 nM |
| CCC[CH2][Sn]1([CH2]CCC)[O]CC([CH2][Sn]([c]2ccccc2)([c]2ccccc2)[c]2ccccc2)[O]1 (configuration not stated) | 19100 nM |
| CC(C)(C)n1cc(-c2ccnc(NCCCNS(=O)(=O)c3ccc(Cl)cc3)c2)c(-c2cccc(O)c2)n1 | 2350 nM |
| CCNC(=O)CCCCC(=O)c1c(C)[nH]c(/C=C2\N=C(c3ccc[nH]3)C=C2OC)c1C | 2590 nM |
| CN(C)CCN1C(=O)c2cccc3c(-c4ccc5ncn(C6CCCCC6)c5c4)ccc(c23)C1=O | 2590 nM |
| O=C1/C(=C\c2cn(CC(O)CN3CCCCC3)c3ccccc23)c2ccccc2N1c1c(Cl)cccc1Cl (configuration not stated) | 1630 nM |
| O=C(Nc1ccc([N+](=O)[O-])cc1)c1cc2ccccc2cc1O | 384 nM |
| CCN1CCN(c2cc(C)nc(NCc3cc(Nc4ccnc5cc(Cl)ccc45)ccc3F)n2)CC1 | 27600 nM |
| COc1ccc(-c2cc3nccn3c(Nc3ncccc3C(N)=O)n2)cc1OC | > 100000 nM |
| CC(=O)[CH-]C(=O)c1ccccc1.CC(=O)[CH-]C(=O)c1ccccc1.CC[O-].O=C1C=C([O-])C(=O)c2ccccc21.[Ti+4] | 70800 nM |
| CN(C)CCC(=O)NCc1c2nc3ccccc3nc2n2ccccc12 | > 100000 nM |
| CO[C@H]1/C=C/C[C@H](C)[C@@H](C)S(=O)(=O)NC(=O)c2ccc3c(c2)N(C[C@@H]2CC[C@H]21)C[C@@]1(CCCc2cc(Cl)ccc21)CO3 | 3500 nM |
| CN1CCN(c2ccc([N+](=O)[O-])c3no[n+]([O-])c23)CC1 | 870 nM |

Data credit: PubChem BioAssay (NCI)
